- Test system: A549 NSCLC
- assay.explanation: NCI tumour cell line growth inhibition, 48 h
readout.type: TGI

Task: Query (molecule): CSC(SC)=C(C#N)C(=O)Nc1ccc(Cl)cc1 ; field requested: TGI
Output: > 100 µM

Task: Now consider COc1cc(C2c3cc4c(cc3[C@@H](Nc3ccc(F)cc3)C3COC(=O)[C@H]23)OCO4)cc(OC)c1O (some centres undefined) .
Output: 5.17 µM

Task: Now consider CC(=O)N(C(=O)CC(=O)N1N=C(C)C(N=Nc2cccc([N+](=O)[O-])c2)C1=O)c1ccc(Cl)cc1 (centres undefined) .
Output: > 10 µM

Task: Now consider COc1ccc(/C=C(\C#N)c2ccccn2)cc1OC .
Output: > 100 µM

Task: Now consider CN(C)NC(=O)NC12CC3CC(CC(C3)C1)C2 .
Output: > 100 µM

Task: Now consider C=CCSC1=N/C(=C\c2ccc(C)cc2)C(=O)N1CC=C .
Output: 65.4 µM

Task: Now consider O=C(/C=C/c1ccco1)Nc1ncc(Cc2cc(Cl)ccc2Cl)s1 .
Output: > 100 µM

Task: Now consider CC(=O)[CH-]C(=O)c1ccccc1.CC(=O)[CH-]C(=O)c1ccccc1.Cl.[O-]CCc1ccccn1.[O-]CCc1ccccn1.[Ti+4] .
Output: 95.9 µM

Task: Now consider C=C1C(C)C2C(Cc3ccccc3)NC(=O)C23C(OC(C)=O)C=CC(C)(O)C(=O)C(C)C/C=C/C3C1O (centres undefined) .
Output: > 500 µM

Task: Now consider C=CCCCCCCCCCOC1C=CC(O)C(CO)O1 (centres undefined) .
Output: > 100 µM

Task: Now consider COc1ccc(/C=C\c2cc(OC)c(OC)c(OC)c2)cc1NC(=O)/C=C/c1cc(OC)c(OC)c(OC)c1 .
Output: > 100 µM

Task: Now consider CNC(=O)c1sc(-n2cnc3cc(OC)c(OC)cc32)cc1OCc1ccccc1C(F)(F)F .
Output: > 25 µM

Task: Now consider CCCC(O)c1ccc2[nH]c3c(C)cc([N+](=O)[O-])c(C)c3c2c1 (centres undefined) .
Output: > 100 µM

Task: Now consider NC1=Nc2ncccc2C(=O)NN1 .
Output: > 10 µM

Task: Now consider COc1ccc(Cl)cc1NC(=O)O/N=C(\Cl)C(C)C .
Output: 37.9 µM

Task: Now consider O=C1CCNC/C1=C\c1ccccc1 .
Output: 92.2 µM

Task: Now consider O=C(O)CCCCCNCc1cc2cc3c(cc2c2cc(OCc4ccccc4)ccc12)OCO3 .
Output: 3.17 µM

Task: Now consider NS(=O)(=O)c1ccc(Nc2c3ccccc3nc3c(C(=O)NC(CO)(CO)CO)cccc23)cc1 .
Output: 0.314 µM

Task: Now consider c1c2c(cc3c1OCO3)-c1ncc3cc4c(cc3c1C2)OCO4 .
Output: > 77 µM

Task: Now consider CCOC(=O)c1c(N2CCN(C)CC2)[nH]c(=O)c(C(c2c(Cl)cccc2Cl)c2c(O)c(C(=O)OCC)c(N3CCN(C)CC3)[nH]c2=O)c1O .
Output: 71.4 µM

Task: Now consider O=[N+]([O-])C(/C=C(\Cl)[N+](=O)[O-])=C(N1CCOCC1)N1CCOCC1 .
Output: 39.3 µM

Task: Now consider O=[N+]([O-])c1ccc(CSC2=C(c3ccc(Cl)cc3)S/C(=C3\SC(SCc4ccc([N+](=O)[O-])cc4)=C(c4ccc(Cl)cc4)S3)S2)cc1 .
Output: > 100 µM

Task: Now consider C=C(CN1CCN(c2cc(C(F)(F)F)cc(C(F)(F)F)c2)CC1)c1ccc(C(=O)Nc2ccccc2N)cc1 .
Output: > 100 µM

Task: Now consider O=C(OC[C@H]1C[C@H]2C(=O)OCCC[C@H]2O1)c1ccccc1 .
Output: > 100 µM

Task: Now consider Nc1nc(N)c(CCCCc2ccc([N+](=O)[O-])cc2)c(N)n1 .
Output: > 100 µM

Task: Now consider COc1ccc([C@@H]2[C@@H](Cl)C(=O)N2c2cc(OC)c(OC)c(OC)c2)cc1C .
Output: > 100 µM

Task: Now consider COC(=O)C(=O)C(C(=O)C(=O)Nc1cc(C)ccc1C)c1nc2ccccc2[nH]c1=O (centres undefined) .
Output: > 100 µM

Task: Now consider O=C1OCOC2(CCCC2)C1c1ccccc1 (centres undefined) .
Output: > 100 µM

Task: Now consider C=CCN(C(C)=O)c1cc(OCc2ccccc2)c2c(c1)c(C)cn2S(=O)(=O)c1ccccc1 .
Output: > 100 µM

Task: Now consider CC1(C)C2CC(=O)C1(C)C(OCc1ccccc1)C2Br (centres undefined) .
Output: > 100 µM

Task: Now consider COc1cc2c(c(O)c1OC)C(O)C1CCC(=O)N1C2c1ccc2c(c1)OCO2 (centres undefined) .
Output: > 100 µM

Task: Now consider CCOC(=O)Nc1cc2c(c(N)n1)N=C(c1ccc(Cl)cc1Cl)CN2 .
Output: 19.3 µM

Task: Now consider Cc1cc2c3ccccc3n3c2c2c1OC1(C)CCC(C2C1)C3(C)C (centres undefined) .
Output: > 25 µM

Task: Now consider CCn1c(=O)c2nc(SC)sc2n(-c2ccccc2)c1=S .
Output: > 100 µM
